tested-target: D(2) dopamine receptor (Homo sapiens)
experimental-protocol: HTS Assay for Positive Allosteric Modulators of the Human D2 Dopamine Receptor: Primary Screen for Potentiators
test-context: HEK293 T-REx D2, calcium flux, EC20 dopamine potentiation; at 10 µM
In all, about 340,000 compounds went through this assay and about 1,200 (0.35%) were called active.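 How the source made its calls: active means potentiation over 3 SD above the plate norm (cut at about 30% in these data); inactive means the rest.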 The full list was thinned out, with actives kept by preference.
Outcomes: 1 (active), 0 (inactive)

> print(dat)
                           smiles.structure  label.value
1  Cc1cccc(N2CCN(C(=O)CN(C)S(=O)(=O)c3ccc4c(c3)CCC(=O)N4)CC2)c1C            0
2              CCOc1ccc(NC(=S)N2CCCCCC2)cc1            1
3      CCN1CCN(c2ccc(NC(=O)c3cnccn3)cc2)CC1            0

====

tested-target: D(2) dopamine receptor (Homo sapiens) (UniProt P14416)
Sequence (P14416 whole entry, looked up): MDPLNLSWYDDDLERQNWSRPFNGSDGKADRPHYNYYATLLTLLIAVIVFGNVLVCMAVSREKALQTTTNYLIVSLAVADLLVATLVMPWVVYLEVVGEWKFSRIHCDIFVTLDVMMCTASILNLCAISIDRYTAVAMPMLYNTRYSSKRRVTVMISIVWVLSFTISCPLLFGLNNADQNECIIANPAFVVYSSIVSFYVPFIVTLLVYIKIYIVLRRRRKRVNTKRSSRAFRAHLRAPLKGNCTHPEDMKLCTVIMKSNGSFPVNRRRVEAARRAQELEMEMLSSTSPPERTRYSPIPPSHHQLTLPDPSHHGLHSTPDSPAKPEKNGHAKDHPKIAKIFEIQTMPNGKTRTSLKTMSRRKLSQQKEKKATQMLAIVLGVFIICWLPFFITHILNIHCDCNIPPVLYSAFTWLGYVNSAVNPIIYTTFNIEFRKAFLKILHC
experimental-protocol: HTS Assay for Positive Allosteric Modulators of the Human D2 Dopamine Receptor: Primary Screen for Potentiators
test-context: HEK293 T-REx D2, calcium flux, EC20 dopamine potentiation; at 10 µM; active compounds read high
The campaign covered roughly 340,000 compounds. About 1,200 (0.35%) were called active. This is one part of a sample in which actives are shown more often than they occur.
property: potentiation (%)

> print(dat)
                                    compound  result.value
 1                 Cc1ccc(SCC2=NNC(=O)C2)cc1          31.9
 2  CCc1nn(CC(=O)Nc2cccc(C)c2C)c(=O)c2cc3sccc3n12          8.71
 3  Cc1ccc(-c2cn(S(=O)(=O)c3cccc([N+](=O)[O-])c3)nc2N)cc1          30.3
 4  NS(=O)(=O)c1cccc(NC(=O)CC23CC4CC(CC(Br)(C4)C2)C3)c1          38.8
 5  COc1ccccc1NC(=O)c1oc2ccccc2c1NC(=O)C(C)C         -4.17
 6  O=C(CC1(O)C(=O)N(CN2CCOCC2)c2ccccc21)c1ccccc1 (stereo unspecified)         -7.42
 7  COCCCNC(=S)NNC(=O)C(O)(c1ccccc1)c1ccccc1         -5.53
 8      CCCCNC(=O)c1cc(-c2ccc(Cl)c(Cl)c2)on1         -3.44
 9  CCCCS(=O)(=O)c1oc(-c2cccs2)nc1S(=O)(=O)c1ccccc1          3.55
10  COc1ccc(-c2cc(C(=O)N3CCN(c4ccc(F)cc4)CC3)no2)cc1         -8.77
11  CCc1ccc(NS(=O)(=O)c2ccc3[nH]cc(C(=O)NCCc4cccc(C)c4)c(=O)c3c2)cc1         -7.11
